Hi! I'm sharing some IC50 results obtained with Dipeptidyl peptidase 4 (Homo sapiens).
Sequence (P27487 whole entry): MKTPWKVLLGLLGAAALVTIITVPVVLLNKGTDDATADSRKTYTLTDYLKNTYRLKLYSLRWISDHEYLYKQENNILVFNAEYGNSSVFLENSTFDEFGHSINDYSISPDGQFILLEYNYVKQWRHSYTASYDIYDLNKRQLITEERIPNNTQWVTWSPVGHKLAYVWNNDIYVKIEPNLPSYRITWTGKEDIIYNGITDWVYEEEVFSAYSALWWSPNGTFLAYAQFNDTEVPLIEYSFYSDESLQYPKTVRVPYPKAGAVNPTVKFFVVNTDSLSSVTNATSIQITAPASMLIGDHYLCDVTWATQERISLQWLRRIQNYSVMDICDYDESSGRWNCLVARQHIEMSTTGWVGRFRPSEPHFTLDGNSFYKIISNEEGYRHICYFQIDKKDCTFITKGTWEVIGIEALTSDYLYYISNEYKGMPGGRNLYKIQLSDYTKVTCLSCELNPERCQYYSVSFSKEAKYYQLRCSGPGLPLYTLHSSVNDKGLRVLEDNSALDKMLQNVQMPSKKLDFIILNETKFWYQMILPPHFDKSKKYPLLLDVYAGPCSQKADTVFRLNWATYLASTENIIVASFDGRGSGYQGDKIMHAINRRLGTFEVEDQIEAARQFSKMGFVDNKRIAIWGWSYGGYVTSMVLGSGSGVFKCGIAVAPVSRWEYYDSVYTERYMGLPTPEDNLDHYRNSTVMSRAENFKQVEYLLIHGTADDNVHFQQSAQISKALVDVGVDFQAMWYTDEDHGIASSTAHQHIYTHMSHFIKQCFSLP
Assay metric: IC50 (nM)

Would you please look over these solved cases?
Entry smiles: N#C[C@@H]1CCCN1C(=O)[C@@H](N)CCC(=O)NC1CCCC1
Units of measure: nM
IC50: 11
//
Entry smiles: CC(C)(CC(=O)N1CCc2ccccc2C1)[C@H](N)C(=O)N1CCC[C@H]1C#N
Units of measure: nM
IC50: 16
//
Entry smiles: CC(C)(CC(=O)N1Cc2ccccc2C1)[C@H](N)C(=O)N1CCC[C@H]1C#N
Units of measure: nM
IC50: 12
//
Entry smiles: COC[C@@H]1CCCN1C(=O)CC[C@H](N)C(=O)N1CCC[C@H]1C#N
Units of measure: nM
IC50: 7
//
Entry smiles: COC[C@H]1CCCN1C(=O)CC[C@H](N)C(=O)N1CCC[C@H]1C#N
Units of measure: nM
IC50: 22
//
Entry smiles: N#C[C@@H]1CCCN1C(=O)[C@@H](N)CCC(=O)N1CCSC1
Units of measure: nM
IC50: 10

(A) CC(C)(CC(=O)N1CCc2ccsc2C1)[C@H](N)C(=O)N1CCC[C@H]1C#N
(B) N#C[C@@H]1CCCN1C(=O)[C@@H](N)CCC(=O)Nc1ccccc1
(C) C[C@@H]1CCCN1C(=O)CC(C)(C)[C@H](N)C(=O)N1CCC[C@H]1C#N
(D) N#C[C@@H]1CCCN1C(=O)[C@@H](N)CCC(=O)N1CCn2cnnc2C1
Query: Endpoint returns the given compounds ordered by ascending IC50. Thanks in advance for listing the labels in the requested order.
Result: D, C, A, B
(D: 7 nM, C: 13 nM, A: 25 nM, B: 37 nM)
